organism: Rattus norvegicus; assay: Open TG-GATES - Regimen: Daily Repeat; type: toxicity, organism-based, Sprague-Dawley; design: regimen Daily Repeat, gender Male, age 6 weeks; settings: in vivo, po, 1000 mg/kg, 72 h, tissue Blood, route gavage, dose level High, time 3 day
Readings of Ht for the listed molecules
All answers are understood in %, so give the number only.

>>> readout_value("CC(=O)[C@@]1(O)CC[C@H]2[C@@H]3C=C(Cl)C4=CC(=O)CC[C@]4(C)[C@H]3CC[C@@]21C [CHLORMADINONE]")
42
>>> readout_value("CCCCNC(=O)NS(=O)(=O)c1ccc(C)cc1 [TOLBUTAMIDE]")
41.6

Problem: For O=C(O)c1ccccc1Nc1ccccc1 [FENAMIC ACID] , what is its reported Ht?
Result: 39.3

Problem: Item: CC(S)C(=O)NCC(=O)O (centres undefined) [TIOPRONIN]
Result: 39.2

----------
Readings of Na for the listed molecules
species on record: Rattus norvegicus; test: Open TG-GATES - Regimen: Daily Repeat; type: toxicity, organism-based, Sprague-Dawley; set-up: regimen Daily Repeat, gender Male, age 6 weeks; conditions: in vivo, po, 1000 mg/kg, 72 h, tissue Plasma, route gavage, dose level High, time 3 day
All answers are understood in meq/L, so give the number only.

Here are 2 molecules together with their reported answers.
>>> readout_value("O=C(O)c1ccccc1Nc1ccccc1 [FENAMIC ACID]")
143.3
>>> readout_value("CC(=O)[C@@]1(O)CC[C@H]2[C@@H]3C=C(Cl)C4=CC(=O)CC[C@]4(C)[C@H]3CC[C@@]21C [CHLORMADINONE]")
140.4

Problem: For CC(S)C(=O)NCC(=O)O (centres undefined) [TIOPRONIN] , what is its reported Na?
Result: 140.8

Problem: Item: CCCCNC(=O)NS(=O)(=O)c1ccc(C)cc1 [TOLBUTAMIDE]
Result: 142.4

----------
species: Rattus norvegicus; assay: Open TG-GATES - Regimen: Daily Repeat; format: toxicity, organism-based, Sprague-Dawley; parameters: regimen Daily Repeat, gender Male, age 6 weeks; conditions: in vivo, po, 100 mg/kg, […], tissue Kidney, route gavage, dose level Low, time 7 day
experimental-endpoint: KIDNEY_R (g)
All answers are understood in g, so give the number only.

Here are 2 compounds together with their reported answers.
>>> readout_value("CCCCNC(=O)NS(=O)(=O)c1ccc(C)cc1 [TOLBUTAMIDE]")
1.2
>>> readout_value("CC(S)C(=O)NCC(=O)O (centres undefined) [TIOPRONIN]")
1.1

Problem: For CC(=O)[C@@]1(O)CC[C@H]2[C@@H]3C=C(Cl)C4=CC(=O)CC[C@]4(C)[C@H]3CC[C@@]21C [CHLORMADINONE] , what is its reported KIDNEY_R?
Result: 1.1

Problem: Item: O=C(O)c1ccccc1Nc1ccccc1 [FENAMIC ACID]
Result: 1.2

----------
species on record: Rattus norvegicus; test: Open TG-GATES - Regimen: Single; assay type: toxicity, organism-based, Sprague-Dawley; parameters: regimen Single, gender Male, age 6 weeks; conditions: in vivo, po, 0 mg/kg, 24 h, tissue Plasma, route gavage, dose level Control
experimental-endpoint: K (meq/L)
All answers are understood in meq/L, so give the number only.

Here are 3 compounds together with their reported answers.
>>> readout_value("NS(=O)(=O)c1cc(C(=O)O)c(NCc2ccco2)cc1Cl [FUROSEMIDE]")
4.2
>>> readout_value("COc1cc2ncnc(Nc3ccc(F)c(Cl)c3)c2cc1OCCCN1CCOCC1 [GEFITINIB]")
4.4
>>> readout_value("COc1ccc([C@@H]2Sc3ccccc3N(CCN(C)C)C(=O)[C@@H]2OC(C)=O)cc1 [DILTIAZEM]")
4.2

Problem: For CN(C)CCCN1c2ccccc2Sc2ccc(Cl)cc21 [CHLORPROMAZINE] , what is its reported K?
Result: 4
